The measurements presented in this section are drawn from paper PMC8573170.

# tgt: alpha-thrombin (Homo sapiens, UniProt P00734)
# assay.procedure: inhibition of S-2238 hydrolysis, Morrison fit
pKi: −log10 of the molar value.
The following binders are listed with their measured pKi values.
measured.metric: pKi

>>> recorded_measurement("KPVEAEVAQSNLDECEVEAEVAQPKLYQRGEGGNGMEPIPEDVLNEALNA [XC-42 mature peptide]")
10.74
>>> recorded_measurement("KPVEAEVAQPKLYQRGEGGNGMEPIPEDVLNEALNA [XC-43 mature peptide]")
11.21
